molecular target: kinases (Homo sapiens, UniProt P00519, Y253F); construct: purchased Eurofins/DiscoveRx; host or cells: E. coli BL21-derived host (T7 phage display) for most kinases; HEK-293 for the rest; experiment: KINOMEscan kinase binding assay (Eurofins/DiscoveRx), % Ctrl; conditions: 1 μM; ABL1(Y253F)-phosphorylated
MEASURED ENDPOINT: % Ctrl, ABL1(Y253F)-phosphorylated (% Ctrl)
// note: answer is a bare numeric in % Ctrl

Worked set:
MOLECULE	EXPERIMENTAL TARGET	TEST VALUE
Cc1cc2c([nH]1)/C=C1\C(=O)Nc3ccc(cc31)-c1c(C)n[nH]c1CNCCN(C)C2=O [Ex. 127]	kinases (Homo sapiens, UniProt P00519, Y253F)	0
Cc1cc2c([nH]1)/C=C1\C(=O)Nc3cnc(nc31)N(C)CCCOCCN(C)C2=O [Ex.71]	kinases (Homo sapiens, UniProt P00519, Y253F)	91
Cc1cc2c([nH]1)/C=C1\C(=O)Nc3cc(Cl)c(cc31)OCCOCCN(C)C2=O [Ex. 131]	kinases (Homo sapiens, UniProt P00519, Y253F)	0
Cc1cc2c([nH]1)/C=C1\C(=O)Nc3ccc(cc31)O[C@@H](C)COCCN(C)C2=O [Ex. 92]	kinases (Homo sapiens, UniProt P00519, Y253F)	54
Cc1cc2c([nH]1)/C=C1\C(=O)Nc3ccc(cc31)-c1ccnn1CCNCCNC2=O [Ex. 43]	kinases (Homo sapiens, UniProt P00519, Y253F)	80

query: Entry Cc1cc2c([nH]1)/C=C1\C(=O)Nc3ccc(cc31)-c1ccnn1CCOCCNC2=O [Ex.39] : reported % Ctrl, ABL1(Y253F)-phosphorylated = ?
result: 98

query: Entry Cc1cc2c([nH]1)/C=C1\C(=O)Nc3cc(Cl)c(cc31)OCCO[C@@H](C(=O)N[C@@H]1CCNC1)CN(C)C2=O [Ex. 136] : reported % Ctrl, ABL1(Y253F)-phosphorylated = ?
result: 16

query: Entry Cc1cc2c([nH]1)/C=C1\C(=O)Nc3ccc(cc31)CN(C)C(=O)COCCNC2=O [Ex.111] : reported % Ctrl, ABL1(Y253F)-phosphorylated = ?
result: 58

====

Target: kinases (Homo sapiens, UniProt P00519, Y253F)
Construct: purchased Eurofins/DiscoveRx; host or cells: E. coli BL21-derived host (T7 phage display) for most kinases; HEK-293 for the rest
Assay: KINOMEscan kinase binding assay (Eurofins/DiscoveRx), % Ctrl
Conditions: target ABL1(Y253F)-phosphorylated; 1 μM
Method: Kinase binding assays were performed at Eurofins/DiscoveRx using the general KINOMEscan Protocol (Fabian, M. A. et al., “A small molecule-kinase interaction map for clinical kinase inhibitors,” Nat. Biotechnol. 2005, 23(3):329-36). For most assays, kinase-tagged T7 phage strains were prepared in an E. coli host derived from the BL21 strain. […] The kinase concentration in the eluates was measured by qPCR. […]
MEASURED ENDPOINT: % Ctrl, ABL1(Y253F)-phosphorylated (% Ctrl)
// note: answer is a bare numeric in % Ctrl

COMPOUND	EXPERIMENTAL TARGET	MEASURED ENDPOINT	UNITS SYMBOL	TEST VALUE
Cc1nn(C)c2c1-c1ccc3c(c1)/C(=C/c1[nH]ccc1C(=O)N(C)CCCO2)C(=O)N3 [Ex. 150]	kinases (Homo sapiens, UniProt P00519, Y253F)	% Ctrl, ABL1(Y253F)-phosphorylated	% Ctrl	100

query: GET /values?readout=% Ctrl, ABL1(Y253F)-phosphorylated&system=kinases (Homo sapiens, UniProt P00519, Y253F)&item= CN1CCSCCOc2cc3c(cc2Cl)NC(=O)/C3=C\c2[nH]ccc2C1=O [Ex. 153]
result: 13

query: GET /values?readout=% Ctrl, ABL1(Y253F)-phosphorylated&system=kinases (Homo sapiens, UniProt P00519, Y253F)&item= CN1CCOCCOc2cc3c(cc2Cl)NC(=O)/C3=C\c2[nH]ccc2C1=O [Ex. 143]
result: 9.1

query: GET /values?readout=% Ctrl, ABL1(Y253F)-phosphorylated&system=kinases (Homo sapiens, UniProt P00519, Y253F)&item= Cc1cc2c([nH]1)/C=C1\C(=O)Nc3cc(Cl)c(cc31)OCCO[C@@H](C(=O)N1CCN(C)CC1)CN(C)C2=O [Ex. 138]
result: 91
